Assign IC50 to each entry below.
molecular target: human Edg-2 receptor (LPA1 receptor) (Homo sapiens, UniProt Q92633); assay: Edg-2 receptor inhibition by FLIPR calcium fluorescence measurement (LPA-mediated calcium liberation); conditions: CHO cells stably overexpressing human Edg-2 receptor; LPA 18:1 100 nM; fluo-4 fluorescence; triplicate; read-out: Inhibitory concentrations IC50 for inhibition of the Edg-2 receptor
Sequence (Q92633 whole entry): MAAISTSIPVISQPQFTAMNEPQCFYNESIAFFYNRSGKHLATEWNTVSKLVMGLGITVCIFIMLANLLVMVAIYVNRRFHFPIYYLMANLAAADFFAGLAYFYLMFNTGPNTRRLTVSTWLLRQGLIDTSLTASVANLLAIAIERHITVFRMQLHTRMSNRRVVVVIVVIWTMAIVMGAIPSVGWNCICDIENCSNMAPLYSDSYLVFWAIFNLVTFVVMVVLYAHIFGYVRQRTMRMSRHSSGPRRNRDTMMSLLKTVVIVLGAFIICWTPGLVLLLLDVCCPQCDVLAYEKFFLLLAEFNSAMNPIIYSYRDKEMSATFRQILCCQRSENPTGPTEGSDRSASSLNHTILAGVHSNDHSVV

# input Given the molecule COc1ccc(C(=O)NC2(C(=O)O)Cc3ccccc3C2)cc1OCCCCC(C)C [Example 59] , what is its reported IC50?
# output 1000 to 30000 nM

# input Please report the recorded IC50 for COc1ccc(C(=O)NC2(C(=O)O)Cc3ccccc3C2)cc1-c1cccc(CCC(=O)O)c1 [Example 328] .
# output 100 to 1000 nM

# input What does the record list as IC50 for COc1ccc(C(=O)NC2(C(=O)O)Cc3ccccc3C2)cc1NCc1ccc(F)cc1 [Example 121] ?
# output 1000 to 30000 nM

# input Please give the measured IC50 for this molecule: COc1ccc(C(=O)NC2(C(=O)O)Cc3ccsc3C2)cc1OCCc1cccc(C)c1 (stereo not shown) [Example 99]
# output < 100 nM

# input Which IC50 is listed for Cc1cccc(CCOc2cc(C(=O)NC3(C(=O)O)Cc4ccccc4C3)ccc2OCC2CC2)c1 [Example 266] ?
# output < 100 nM

# input Bench note: what IC50 did CCc1cccc(CCOc2cc(C(=O)NC3(C(=O)O)Cc4ccccc4C3)ccc2OC)c1 [Example 23] show?
# output < 100 nM

# input Record request: IC50 value, item CCn1cc(COc2cc(C(=O)NC3(C(=O)O)Cc4ccccc4C3)ccc2OC)cn1 [Example 71]
# output 1000 to 30000 nM

# input Need IC50 of COc1ccc(C(=O)NC2(C(=O)O)Cc3ccccc3C2)cc1NC(=O)Cc1cccc(Cl)c1 [Example 119] , thanks.
# output 1000 to 30000 nM

# input For the molecule shown here, O=C(NC1(C(=O)O)Cc2ccccc2C1)c1ccc(Cl)c(OCCc2cccc(C(F)(F)F)c2)c1 [Example 128] , give the reported IC50.
# output 100 to 1000 nM

# input Entry COc1ccc(C(=O)NC2(C(=O)O)Cc3ccccc3C2)cc1OCCc1cc(C)ccc1C [Example 140] has what IC50?
# output 1000 to 30000 nM

# input // lookup IC50 for COc1ccc(Cl)cc1-c1cc(C(=O)NC2(C(=O)O)Cc3ccccc3C2)ccc1OC [Example 296]
# output < 100 nM

# input Please look up its IC50: COc1ccc(C(=O)NC2(C(=O)O)Cc3ccccc3C2)cc1OCCCN1CCCCC1 [Example 85]
# output 1000 to 30000 nM

# input Report IC50 for COc1ncc(C(=O)NC2(C(=O)O)Cc3ccccc3C2)cc1-c1cccc(NS(=O)(=O)N(C)C)c1 [Example 231] please.
# output < 100 nM

# input Given the molecule COc1ccc(C(=O)NC2(C(=O)O)Cc3ccccc3C2)cc1OCCc1cccc(C(=O)O)c1 [Example 96] , what is its reported IC50?
# output 1000 to 30000 nM

# input Need IC50, item Cc1cccc(CCOc2cc(C(=O)NC3(C(=O)O)Cc4ccccc4C3)ccc2C(F)(F)F)c1 [Example 185]
# output < 100 nM

# input Sample COc1ccc(C(=O)NC2(C(=O)O)Cc3ccccc3C2)cc1C#Cc1ccc(C(C)(C)C)cc1 [Example 195] — what was its IC50?
# output 100 to 1000 nM
